- ASSAY_TARGET: T1, human BAFF (10056-HNCH, Sino biological) (human, UniProt Q9Y275 134-285)
- T1 construct: Bought protein
- ASSAY_REMARKS: competition ELISA: biotin-labeled BAFF to coated BAFF-R
pIC50: −log10 of the molar value.
Below is a list of entries, each paired with its recorded pIC50 value.
MEASUREMENT_TYPE: pIC50

BINDER: TACI-9-15Fc7 fusion protein (Fc fusion, Full-length chain) STSCREEQGEFYDHLLRDCISCASICGQHPKQCAAFCEEPKSSDKTHTCPPCPAPEAEGAPSVFLFPPKPKDTLMISRTPEVTCVVVDVSHEDPEVKFNWYVDGVEVHNAKTKPREEQYNSTYRVVSVLTVLHQDWLNGKEYKCKVSNKALPSSIEKTISKAKGQPREPQVYTLPPSRDELTKNQVSLTCLVKGFYPSDIAVEWESNGQPENNYKTTPPVLDSDGSFFLYSKLTVDKSRWQQGNVFSCSVMHEALHNHYTQKSLSLSPGGGGSSTSCREEQGEFYDHLLRDCISCASICGQHPKQCAAFCEQK
MEASUREMENT: 8.86
//
BINDER: RCT-18 (Telitacicept) (Fc fusion, Positive control; TACI part is positions 13-118 of the extracellular region of human TACI, the rest is Fc) SRVDQEERFPQGLWTGVAMRSCPEEQYWDPLLGTCMSCKTICNHQSQRTCAAFCRSLSCRKEQGKFYDHLLRDCISCASICGQHPKQCAYFCENKLRSPVNLPPELDKTHTCPPCPAPEAEGAPSVFLFPPKPKDTLMISRTPEVTCVVVDVSHEDPEVKFNWYVDGVEVHNAKTKPREEQYNSTYRVVSVLTVLHQDWLNGKEYKCKVSNKALPSSIEKTISKAKGQPREPQVYTLPPSRDELTKNQVSLTCLVKGFYPSDIAVEWESNGQPENNYKTTPPVLDSDGSFFLYSKLTVDKSRWQQGNVFSCSVMHEALHNHYTQKSLSLSPGK
MEASUREMENT: 7.72
//
BINDER: TACI-9-15Fc5 fusion protein (Fc fusion, Full-length chain) STSCREEQGEFYDHLLRDCISCASICGQHPKQCAAFCEDKTHTCPPCPAPEAEGAPSVFLFPPKPKDTLMISRTPEVTCVVVDVSHEDPEVKFNWYVDGVEVHNAKTKPREEQYNSTYRVVSVLTVLHQDWLNGKEYKCKVSNKALPSSIEKTISKAKGQPREPQVYTLPPSRDELTKNQVSLTCLVKGFYPSDIAVEWESNGQPENNYKTTPPVLDSDGSFFLYSKLTVDKSRWQQGNVFSCSVMHEALHNHYTQKSLSLSPGK
MEASUREMENT: 8.84
//
BINDER: TACI-9-15Fc9 fusion protein (Fc fusion, Full-length chain) STSCREEQGEFYDHLLRDCISCASICGQHPKQCAAFCEEPKSSDKTHTCPPCPAPEAEGAPSVFLFPPKPKDTLMISRTPEVTCVVVDVSHEDPEVKFNWYVDGVEVHNAKTKPREEQYNSTYRVVSVLTVLHQDWLNGKEYKCKVSNKALPSSIEKTISKAKGQPREPQVYTLPPSRDELTKNQVSLTCLVKGFYPSDIAVEWESNGQPENNYKTTPPVLDSDGSFFLYSKLTVDKSRWQQGNVFSCSVMHEALHNHYTQKSLSLSPGGGGSSTSCREEQGEFYDHLLRDCISCASICGQHPKQCAAFCESS
MEASUREMENT: 8.93
//
BINDER: TACI-9-15Fc8 fusion protein (Fc fusion, Full-length chain) STSCREEQGEFYDHLLRDCISCASICGQHPKQCAAFCEEPKSSDKTHTCPPCPAPEAEGAPSVFLFPPKPKDTLMISRTPEVTCVVVDVSHEDPEVKFNWYVDGVEVHNAKTKPREEQYNSTYRVVSVLTVLHQDWLNGKEYKCKVSNKALPSSIEKTISKAKGQPREPQVYTLPPSRDELTKNQVSLTCLVKGFYPSDIAVEWESNGQPENNYKTTPPVLDSDGSFFLYSKLTVDKSRWQQGNVFSCSVMHEALHNHYTQKSLSLSPGGGGSSTSCREEQGEFYDHLLRDCISCASICGQHPKQCAAFCESK
MEASUREMENT: 8.81
//
BINDER: TACI-9-15Fc6 fusion protein (Fc fusion, Full-length chain) STSCREEQGEFYDHLLRDCISCASICGQHPKQCAAFCEEPKSSDKTHTCPPCPAPEAEGAPSVFLFPPKPKDTLMISRTPEVTCVVVDVSHEDPEVKFNWYVDGVEVHNAKTKPREEQYNSTYRVVSVLTVLHQDWLNGKEYKCKVSNKALPSSIEKTISKAKGQPREPQVYTLPPSRDELTKNQVSLTCLVKGFYPSDIAVEWESNGQPENNYKTTPPVLDSDGSFFLYSKLTVDKSRWQQGNVFSCSVMHEALHNHYTQKSLSLSPGK
MEASUREMENT: 8.73
